The reported measurements were obtained from the supplement of paper PMC6470124.

Measured absolute recovery accompanies every entry in the list below.
assay: absolute recovery over mixed-bed multilayer solid-phase extraction; higher = better recovery; settings: wastewater effluent; enrichment method: SPE
Respond with the bare value in %.

Below are worked cases with known answers.
molecule: Cc1onc(-c2ccccc2)c1C(=O)NC1C(=O)N2C1SC(C)(C)C2C(=O)[O-] (stereo not given)
unit of measure: %
absolute recovery: 21.2
//
molecule: COC(=O)Nc1nc2ccccc2[nH]1
unit of measure: %
absolute recovery: 93.2
//
molecule: O=C([O-])COc1ccc(Cl)cc1Cl
unit of measure: %
absolute recovery: 93.5

input: Quick one: absolute recovery of `CC(C)N(C(=O)C(=O)[O-])c1ccccc1` ?
output: 93.5

input: Quick one: absolute recovery of `COc1cc(OC)n2nc([N-]S(=O)(=O)c3c(C(F)(F)F)ccnc3OC)nc2n1` ?
output: 96.3

input: Quick one: absolute recovery of `O=S(=O)([O-])NC1CCCCC1` ?
output: 29

input: Quick one: absolute recovery of CCN(C)C(=O)Oc1cccc(C(C)[NH+](C)C)c1 (stereo not given) ?
output: 90.6

input: Quick one: absolute recovery of C#CC[N+](C)([O-])C(C)Cc1ccccc1 (stereo not given) [Deprenyl-N-Oxide] ?
output: 70.5
